Where do the numbers come from? From paper PMC10786891.

- System Under Test: T1, EsCas13d, nuclease-dead (Eubacterium siraeum, UniProt B0MS50, R295A;H300A;R849A;H854A)
- T1 sequence: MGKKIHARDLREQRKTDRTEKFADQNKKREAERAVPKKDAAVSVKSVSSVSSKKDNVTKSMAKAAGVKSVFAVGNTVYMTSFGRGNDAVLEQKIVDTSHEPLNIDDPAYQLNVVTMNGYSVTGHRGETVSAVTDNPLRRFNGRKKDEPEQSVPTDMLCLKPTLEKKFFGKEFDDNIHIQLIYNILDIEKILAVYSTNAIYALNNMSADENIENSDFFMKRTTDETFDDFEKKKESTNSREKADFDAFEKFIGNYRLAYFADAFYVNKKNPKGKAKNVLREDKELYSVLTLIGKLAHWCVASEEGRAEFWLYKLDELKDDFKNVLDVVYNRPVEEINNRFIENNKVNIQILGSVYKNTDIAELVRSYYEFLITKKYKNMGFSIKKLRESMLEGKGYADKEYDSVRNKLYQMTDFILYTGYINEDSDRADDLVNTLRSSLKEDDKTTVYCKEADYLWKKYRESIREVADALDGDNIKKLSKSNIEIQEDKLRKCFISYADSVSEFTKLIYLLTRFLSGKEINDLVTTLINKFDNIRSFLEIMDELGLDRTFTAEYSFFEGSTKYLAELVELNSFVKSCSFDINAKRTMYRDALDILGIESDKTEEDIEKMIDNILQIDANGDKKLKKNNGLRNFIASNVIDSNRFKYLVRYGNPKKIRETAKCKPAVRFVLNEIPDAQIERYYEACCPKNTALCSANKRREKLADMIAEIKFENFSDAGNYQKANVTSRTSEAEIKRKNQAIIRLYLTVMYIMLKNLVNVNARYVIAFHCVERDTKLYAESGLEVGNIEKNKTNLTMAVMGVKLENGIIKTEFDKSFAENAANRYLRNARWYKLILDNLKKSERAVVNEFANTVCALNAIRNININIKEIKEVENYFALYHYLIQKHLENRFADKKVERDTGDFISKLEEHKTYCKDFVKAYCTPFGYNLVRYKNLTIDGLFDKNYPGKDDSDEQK
- Protocol Summary: crRNA (strand 1, pre-loaded); Mg2+; 40 mM Tris-HCl pH 7.5, 150 mM NaCl, 6 mM MgCl2, 1 mM DTT, 0.1% Tween-20, 0.2 mg/ml BSA; 25 C; 10 min per concentration, then washed
- Applied Conditions: tags: His6-TwinStrep-SUMO cleaved; N-terminal SNAP kept (SNAP-Surface 488); label: 3' end held by stalled T7 RNA polymerase
Each entry below lists one item and its recorded pKd value.
Scale for pKd: -log10 of concentration given in mol/L; no unit attached.

Binder: target 2 MT 5'PFS UAC 3'PFS UCA (mixed) RNA 1: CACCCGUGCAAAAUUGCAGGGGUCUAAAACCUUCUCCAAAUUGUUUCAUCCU RNA 2: GGGAAUGGAUCCACAUCUACGAAUUCUACAGGAUGAAACAAUUUGGAGAAGUCAAGAUCGGAAGAGCACACGU
pKd: 8.20
//
Binder: target 1 insU 3' of 21,insC 3' of 11 (mixed) RNA 1: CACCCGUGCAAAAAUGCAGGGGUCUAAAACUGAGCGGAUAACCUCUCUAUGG RNA 2: GGGAAUGGAUCCACAUCUACGAAUUCGUACCUAUAGAGAGGUCUAUCCGCUCACCGAGAUCGGAAGAGCACACGU
pKd: 7.09
//
Binder: target 2 MT 5'PFS GAC 3'PFS CCG (mixed) RNA 1: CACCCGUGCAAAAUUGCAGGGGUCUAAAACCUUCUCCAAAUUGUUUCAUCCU RNA 2: GGGAAUGGAUCCACAUCUACGAAUUCGACAGGAUGAAACAAUUUGGAGAAGCCGAGAUCGGAAGAGCACACGU
pKd: 7.89
//
Binder: target 3 insU 3' of 6,insU 3' of 3 (mixed) RNA 1: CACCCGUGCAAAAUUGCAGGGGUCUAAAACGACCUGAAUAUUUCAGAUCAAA RNA 2: GGGAAUGGAUCCACAUCUACGAAUUCGUUUUUGAUCUGAAAUAUUCUAGGUUCUGCAGAUCGGAAGAGCACACGU
pKd: 7.89

// pKd lookup, key: target 1 U3A,U11G (mixed) RNA 1: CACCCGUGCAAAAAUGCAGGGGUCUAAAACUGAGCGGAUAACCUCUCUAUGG RNA 2: GGGAAUGGAUCCACAUCUACGAAUUCGUACCAUAGAGAGGGUAUCCGCACACCGAGAUCGGAAGAGCACACGU 7.91

Also target 1 MT 5'PFS CCG 3'PFS CUA (mixed) RNA 1: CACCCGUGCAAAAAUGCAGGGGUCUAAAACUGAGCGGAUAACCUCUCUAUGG RNA 2: GGGAAUGGAUCCACAUCUACGAAUUCCCGCCAUAGAGAGGUUAUCCGCUCACUAAGAUCGGAAGAGCACACGU ? 8.10

Then this binder: target 1 C7G,A20U (mixed) RNA 1: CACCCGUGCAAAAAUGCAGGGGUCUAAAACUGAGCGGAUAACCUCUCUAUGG RNA 2: GGGAAUGGAUCCACAUCUACGAAUUCGUACCUUAGAGAGGUUAUGCGCUCACCGAGAUCGGAAGAGCACACGU 7.33
